PROTOCOL TEXT: recombinant barcode read abundance after kanamycin selection (control-corrected) (log10(CPM+1)); higher = more efficient recombination; sequences stand for … in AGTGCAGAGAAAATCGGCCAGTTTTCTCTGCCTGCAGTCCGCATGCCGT…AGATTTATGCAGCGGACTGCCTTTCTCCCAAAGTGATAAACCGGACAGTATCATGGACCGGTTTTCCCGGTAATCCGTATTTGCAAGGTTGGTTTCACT; site = the 11-nt target
MEASURED QUANTITY: recombinant barcode read abundance (log10)

> print(dat)
                            ordered.residues  measurement
 1  GAGGCTCCTTGGGTTCTAACCTGTTGCCG (site GAGGCTCCTGG)        0.138
 2  ATAGGTACTTGGGTTCTAACCTGTTGCTT (site CTAGGTACTAA)        0.534
 3  TAGTCCACTTGGGTTCTAACCTGTTGCGC (site CTCAAAGCTCG)       0.0907
 4  AGGATAGCTTGGGTTCTAACCTGTTGCGG (site AGTCTAGCTCC)        0.102
 5  CTAATGGCTTGGGTTCTAACCTGTTGCCT (site CTAATAGCTAG)        0.176
 6  TAGCCTACTTGGGTTCTAACCTGTTGCCG (site TAGCCTACTCG)        0.725
 7  AGAGAGACTTGGGTTCTAACCTGTTGCCT (site AGAGTGACTAG)        0.185
 8  ACATTGTCTTGGGTTCTAACCTGTTGCCT (site ACATTGTCTAG)         1.73
 9  GGATGCACTTGGGTTCTAACCTGTTGCCA (site GGATGCACTTG)        0.953
10  TAGTGCTCTTGGGTTCTAACCTGTTGCCC (site TAGTGCTCTTG)        0.116

====

PROTOCOL TEXT: recombinant UMI read abundance after kanamycin selection (control-corrected) (log10(CPM+1)); higher = more efficient recombination; extreme values may be limits of the assay; sequences stand for … in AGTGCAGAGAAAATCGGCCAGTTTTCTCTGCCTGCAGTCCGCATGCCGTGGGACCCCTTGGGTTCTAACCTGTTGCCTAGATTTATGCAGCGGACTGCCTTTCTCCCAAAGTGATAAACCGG…AGGTTGGTTTCACT; site = the 11-nt donor
If the reported recombinant UMI read abundance (log10) equals or exceeds 0.9, assign t. If not, assign f.

> print(dat)
                           ordered.residues  class.assignment
1  TAGCCTTCATGGACCGGTTTTCCCGGTAATCCGTATTTGGT (site TAGGCTTCTAC)                 f
2  CGTTAGGCATGGACCGGTTTTCCCGGTAATCCGTATTTGCT (site CGTTGGGCTAG)                 f
3  CAATGGTCATGGACCGGTTTTCCCGGTAATCCGTATTTGAA (site CAATGGTCTTT)                 t
4  TGCCCCACATGGACCGGTTTTCCCGGTAATCCGTATTTGAC (site TGCCCCACTGT)                 t
5  GAAGGGCCATGGACCGGTTTTCCCGGTAATCCGTATTTGCA (site GAAGGGCCTTG)                 f
6  GATTGGCCATGGACCGGTTTTCCCGGTAATCCGTATTTGAC (site GATTGGTCTGT)                 f
7  CAGTAGGCATGGACCGGTTTTCCCGGTAATCCGTATTTGCA (site CAGTAGGCTTG)                 t
8  ACTCCACCATGGACCGGTTTTCCCGGTAATCCGTATTTGTG (site ACTCCACCTCA)                 f

====

PROTOCOL TEXT: recombinant UMI read abundance after kanamycin selection (control-corrected) (log10(CPM+1)); higher = more efficient recombination; extreme values may be limits of the assay; sequences stand for … in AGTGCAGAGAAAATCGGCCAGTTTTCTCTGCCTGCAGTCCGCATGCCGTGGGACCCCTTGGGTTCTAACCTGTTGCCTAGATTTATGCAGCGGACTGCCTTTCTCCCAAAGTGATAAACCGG…AGGTTGGTTTCACT; site = the 11-nt donor
If the reported recombinant UMI read abundance (log10) equals or exceeds 0.007, assign T. If not, assign F.

> print(dat)
                           ordered.residues  class.assignment
1  CACTCCTCATGGACCGGTTTTCCCGGTAATCCGTATTTGTC (site CACTCCTCTGC)                 T
2  TGTACACCATGGACCGGTTTTCCCGGTAATCCGTATTTGAC (site TGTTCACCTGT)                 F
3  AGCCTACCATGGACCGGTTTTCCCGGTAATCCGTATTTGTT (site AGCCTAACTAA)                 F
4  GTACGAGCATGGACCGGTTTTCCCGGTAATCCGTATTTGCA (site GTACGAGCTTG)                 T
5  CAATTCTCATGGACCGGTTTTCCCGGTAATCCGTATTTGCT (site CAATTCACTAG)                 T
6  CCGTTCGCATGGACCGGTTTTCCCGGTAATCCGTATTTGTG (site CCGTTTGCTCA)                 F
7  TTAGCTTCATGGACCGGTTTTCCCGGTAATCCGTATTTGTG (site TTAGCTGCTCA)                 F
8  GTCACGCCATGGACCGGTTTTCCCGGTAATCCGTATTTGTA (site GCCACGCCTTA)                 F
9  ACTTGCCCATGGACCGGTTTTCCCGGTAATCCGTATTTGAT (site GCTTGCCCTAT)                 T

====

PROTOCOL TEXT: recombinant UMI read abundance after kanamycin selection (control-corrected) (log10(CPM+1)); higher = more efficient recombination; extreme values may be limits of the assay; sequences stand for … in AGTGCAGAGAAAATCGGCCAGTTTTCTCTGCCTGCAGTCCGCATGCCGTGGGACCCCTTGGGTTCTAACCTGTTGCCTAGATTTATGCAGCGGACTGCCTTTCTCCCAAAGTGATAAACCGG…AGGTTGGTTTCACT; site = the 11-nt donor
recombinant UMI read abundance (log10) class ranges: low (below 0.02), middle (0.02 to below 2), high (2 or more)

> print(dat)
                           ordered.residues  class.assignment
1  TGAGTGGCATGGACCGGTTTTCCCGGTAATCCGTATTTGGT (site AGAGTGGCTAC)            middle
2  GATTGGCCATGGACCGGTTTTCCCGGTAATCCGTATTTGCA (site GACTGGCCTTG)               low
3  GGCAGCGCATGGACCGGTTTTCCCGGTAATCCGTATTTGCT (site GGCAGCGCTAG)              high
4  GTTCGATCATGGACCGGTTTTCCCGGTAATCCGTATTTGCA (site GTTCGATCTTG)              high
5  AATTATGCATGGACCGGTTTTCCCGGTAATCCGTATTTGTA (site AATTATGCTTA)            middle
6  GTCGTATCATGGACCGGTTTTCCCGGTAATCCGTATTTGTC (site GTCGTATCTGA)              high
7  ACGAAGACATGGACCGGTTTTCCCGGTAATCCGTATTTGCA (site AAGAAGACTTG)              high
8  TGTTCCCCATGGACCGGTTTTCCCGGTAATCCGTATTTGCA (site TGTTCCCCTTA)               low
9  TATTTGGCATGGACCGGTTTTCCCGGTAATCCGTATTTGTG (site TATGTGGCTCA)               low

====

PROTOCOL TEXT: recombinant UMI read abundance after kanamycin selection (control-corrected) (log10(CPM+1)); higher = more efficient recombination; extreme values may be limits of the assay; sequences stand for … in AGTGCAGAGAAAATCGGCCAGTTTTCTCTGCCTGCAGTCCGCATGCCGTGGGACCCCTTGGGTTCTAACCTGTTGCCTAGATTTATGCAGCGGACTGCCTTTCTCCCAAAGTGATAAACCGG…AGGTTGGTTTCACT; site = the 11-nt donor
MEASURED QUANTITY: recombinant UMI read abundance (log10)

> print(dat)
                            ordered.residues  measurement
 1  TGTTGCCCATGGACCGGTTTTCCCGGTAATCCGTATTTGTA (site TGTTTCCCTTA)       0.0108
 2  TTGCTACCATGGACCGGTTTTCCCGGTAATCCGTATTTGCT (site GTGCTACCTAG)            0
 3  CGCCATACATGGACCGGTTTTCCCGGTAATCCGTATTTGCT (site CGCCATACTAG)         1.64
 4  AACCATCCATGGACCGGTTTTCCCGGTAATCCGTATTTGAT (site AACCATCCTAT)        0.499
 5  ATTTGGGCATGGACCGGTTTTCCCGGTAATCCGTATTTGGG (site ATTTGGGCTCC)       0.0319
 6  CGATTAGCATGGACCGGTTTTCCCGGTAATCCGTATTTGCT (site CGATTAGCTAG)            0
 7  CGAGAAGCATGGACCGGTTTTCCCGGTAATCCGTATTTGCT (site CGAGAAGCTAG)         2.17
 8  ATTGAAGCATGGACCGGTTTTCCCGGTAATCCGTATTTGCA (site ATTGAAGCTTG)         2.44
 9  GTTCAAGCATGGACCGGTTTTCCCGGTAATCCGTATTTGCA (site GTTCTAGCTTG)            0
10  CCCTAGCCATGGACCGGTTTTCCCGGTAATCCGTATTTGCT (site CCCTAGCCTAG)            0
11  TTAGCTGCATGGACCGGTTTTCCCGGTAATCCGTATTTGTA (site TTAGCTGCTCA)        0.026
12  TTCCCTACATGGACCGGTTTTCCCGGTAATCCGTATTTGAG (site ATCCCTACTCT)            0
13  CCTGGAACATGGACCGGTTTTCCCGGTAATCCGTATTTGTT (site CGTGGAACTAA)      0.00754
14  AAGTGTGCATGGACCGGTTTTCCCGGTAATCCGTATTTGTC (site AAGTGTGCTGA)         2.99
15  GATAAGGCATGGACCGGTTTTCCCGGTAATCCGTATTTGCG (site GATAAGGCTCG)         1.83
16  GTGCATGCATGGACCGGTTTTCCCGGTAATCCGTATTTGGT (site GTGGATGCTAC)      0.00465
17  TAACTAGCATGGACCGGTTTTCCCGGTAATCCGTATTTGAA (site TATCTAGCTTT)            0
18  GAAGACTCATGGACCGGTTTTCCCGGTAATCCGTATTTGTT (site GAAGATTCTAA)        0.506

All figures here come from the supplement of paper PMC11208160.
